System: Acinetobacter baumannii
Assay: Potentiation of colistin-induced antimicrobial activity against colistin-resistant Acinetobacter baumannii 4106 assessed as fold reduction in colistin MIC at 60 uM after 18 hrs by broth microdilution assay
Format: functional

# smiles.string, measurement.target, fold change (FC)
records = [
    ("O=C(NCCc1c[nH]c2ccccc12)c1cc(Br)c(Br)s1", "Acinetobacter baumannii", 32),
    ("O=C(NCCc1c[nH]cn1)c1cc(Br)c(Br)[nH]1", "Acinetobacter baumannii", 8),
    ("O=C(NCCc1c[nH]c2ccccc12)c1cccs1", "Acinetobacter baumannii", 8),
    ("O=C(NCCc1csc2ccccc12)c1cc(Br)c(Br)[nH]1", "Acinetobacter baumannii", 32),
    ("O=C(NCc1c[nH]c2ccccc12)c1cccc(Br)n1", "Acinetobacter baumannii", 32),
    ("O=C(NCc1cc2ccccc2[nH]1)c1cc(Br)c(Br)[nH]1", "Acinetobacter baumannii", 2048),
    ("O=C(NCc1c[nH]c2ccccc12)c1cc(I)c(I)[nH]1", "Acinetobacter baumannii", 0),
    ("O=C(NCCc1c[nH]c2ccc(O)cc12)c1cc(Br)c(Br)[nH]1", "Acinetobacter baumannii", 4),
    ("O=C(NCCc1c[nH]c2ccccc12)c1cc(Cl)c(Cl)[nH]1", "Acinetobacter baumannii", 256),
    ("O=C(NCCc1c[nH]c2ccccc12)c1ccc(Br)o1", "Acinetobacter baumannii", 16),
    ("O=C(NCCc1c[nH]c2ccccc12)c1cc(Br)c(Br)n1Cc1ccccc1", "Acinetobacter baumannii", 8),
    ("O=C(NCCCc1c[nH]c2ccccc12)c1cc(Br)c(Br)[nH]1", "Acinetobacter baumannii", 512),
]

Source listed as ChEMBL document CHEMBL4392827.
